Molecular target: T1, endogenous human APOL1 (wild-type immortalized podocytes; also JHH-1 cells, kidney and liver tissue) (human, UniProt O14791 28-398)
T1 construct: whole, on cells; Cell or tissue and permeabilization are told under assay; also called podocyte APOL1; endogenous APOL1
T1 sequence (looked up): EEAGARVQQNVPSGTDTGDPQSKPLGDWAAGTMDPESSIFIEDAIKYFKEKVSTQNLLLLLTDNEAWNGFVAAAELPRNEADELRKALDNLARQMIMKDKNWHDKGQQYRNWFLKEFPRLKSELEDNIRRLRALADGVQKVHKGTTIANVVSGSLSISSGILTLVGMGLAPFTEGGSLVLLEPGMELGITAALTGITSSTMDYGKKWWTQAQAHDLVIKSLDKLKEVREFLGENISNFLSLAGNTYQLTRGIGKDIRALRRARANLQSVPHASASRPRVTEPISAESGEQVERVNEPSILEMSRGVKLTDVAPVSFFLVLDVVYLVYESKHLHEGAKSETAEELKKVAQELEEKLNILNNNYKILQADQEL
Assay: summary of the Examples: podocyte flow cytometry
assay-endpoint: binding result

-- ask Record request: binding result value, item antibody 3.6E10 (antibody, V domains shown, Mouse mAb, cloned as murine IgG2a LALAPG) VH: QVQLQQSGAELAKPGASVKMSCKASGYIFTSYYLHWVKQRPGQGLEWIGYINPNTGYTEYTQNFKDRATLTADKSSSTAYMQLTSLTSEDSAVYFCVNGNPFVYWGQGTLVTVSA VL: DIVMTQSPSSLTVTTGEKVTMTCRSSQSLLNSGNQKNYLTWFQQKPGQPPKLLIYWTSTRYSGVPDRFTGSGSGTDFTLTISSVQAEDLAVYYCQNDYSYPLTFGAGTKLEIKR
-- reply binds

-- ask Record request: binding result value, item antibody 4.11H11 (antibody, V domains shown, Mouse mAb, cloned as murine IgG2a LALAPG) VH: EVQVQQSGPELVKPGASMKISCKASGYSFIVYTMNWVKQSHGKNLEWIGLINPYNGGTIYNRKFKGKATLTVDKSSSTAYLELLSLTSEDSAVYYCARGALYRYEGAMDYWGQGTSVIVSS VL: QIVLSQFPAILSASPGEKVTMTCRASSSVIYVHWYQQKPGSSPKPWIYATSNLASGVPARFSGSGSGTSHSLTISRLEAEDTATYYCQQWSSNPLTFGAGTKLEIKR
-- reply binds
